Listed here: items and their measured Kd.
target: T1, mouse serum albumin (mouse, UniProt P07724 25-608); assay: SPR (BIAcore), eight-point dilution kinetics
T1 construct: also called MSA
// return the numeric value with its unit appended

Here is how some binders turned out for Kd.
BINDER	Kd
DOM7r-31-14 (VHH) VHH: EVQLLESGGGLVQPGGSLRLSCTASGFTFRHYRMGWVRQAPGKGLEWVSWIRPDGTFTYYADSVKGRFTISRDNSKNTLYLQMNSLRAEDTAVYYCAKSYMADRFDYWGQGTLVTVSS	6 nM
DOM7r-201 (VHH) VHH: EVQLLESGGGLVQPGGSLRLSCAASGFTFNHYTMGWVRQAPGKGLEWVSLIHPSGTVIYYADSVKGRFTISRDNSKNTLYLQMNSLRAEDTAVYYCAKWSSRAFDYWGQGTLVTVSS	280 nM
DOM7r-36-8 (VHH) VHH: EVQLLESGGGLVQPGGSLRLSCAASGFTFNHYTMGWVRQAPGKGLEWVSLIHPSGTVIYYADSVKGRFTISRDNSKNTLYLQMNSLRAEDTAVYYCARWSSRAFDYWGQGTLVTVSS	520 nM

As a next step, examine the binder that follows.
According to the records, this binder DOM7h-98-4 (VHH) VHH: EVQLLESGGGLVQPGGSLRLSCAASGFTFGNYAMAWVRQAPGKGLEWVSSIDMVGIKTYYADSVKGRFTNSRDNSKNTLYLQMNSLRAEDTAVYYCARGFRIFDYWGQGTLVTVSS displays Kd of 810 nM
